Values were extracted from ChEMBL document CHEMBL4689842.

# reported Growth Rate; entries follow
# Tested on: Fibroblast
# assayInfo: Incucyte cell viability with human fibroblast; further: filed as whole numbers so only -1 and 0 and 1 occur
# Type: toxicity, cell-based
# studyConditions: 6 h, 10 µM, compound concentration 10 uM, replicate number 1, timepoint 6 hours
Could you keep your reply to the number by itself?

>  <compound>
CC(=O)[C@@]1(O)CC[C@H]2[C@@H]3C[C@H](C)C4=CC(=O)CC[C@]4(C)[C@H]3CC[C@@]21C

>  <numericValue>
0

$$$$
>  <compound>
COc1cccc(CNC(=O)c2nc3scc(CN(C)Cc4ccccc4)c3c(=O)[nH]2)c1 [T-26f]

>  <numericValue>
0

$$$$
>  <compound>
CCCOc1ccc([C@@H]2[C@@H](C(=O)O)[C@H](c3ccc4c(c3)OCO4)CN2CC(=O)Nc2c(CC)cccc2CC)cc1

>  <numericValue>
1

$$$$
>  <compound>
CO[C@H]1/C=C/O[C@@]2(C)Oc3c(C)c(O)c4c(O)c(c(/C=N/N5CCN(C)CC5)c(O)c4c3C2=O)NC(=O)/C(C)=C\C=C\[C@H](C)[C@H](O)[C@@H](C)[C@@H](O)[C@@H](C)[C@H](OC(C)=O)[C@@H]1C

>  <numericValue>
0

$$$$
>  <compound>
Cc1cc2c(cc1N1C(=O)c3cccc4c(CCCO)ccc(c34)C1=O)n(C)c(=O)n2C

>  <numericValue>
0

$$$$

Q: Field request: Growth Rate | item: `Oc1ccc(-c2nc3cc(O)cc(Br)c3o2)cc1`
Result: 0

Q: Any idea what Growth Rate was measured for `Cc1cn(-c2cc(NC(=O)c3ccc4c(c3)CN(c3cncnc3)C[C@@H]4C)cc(C(F)(F)F)c2)cn1` ?
Result: 0

----------
# Tested on: Fibroblast
# assayInfo: Incucyte cell viability with human fibroblast; further: filed as whole numbers so only -1 and 0 and 1 occur
# Format: toxicity, cell-based
# studyConditions: 6 h, 10 µM, compound concentration 10 uM, replicate number 1, timepoint 6 hours
property: Growth Rate
A bare number is all that is needed in reply.

Here is how some compounds turned out for Growth Rate.
>  <molSmiles>
CCC(=O)N[C@H]1CC[C@@H](C(=O)N(C)c2ccc(-c3nc4ccccc4o3)cc2)C1

>  <Growth Rate>
1

$$$$
>  <molSmiles>
CO[C@@H]1COCC[C@@H]1N[C@@H]1CC[C@@](C(=O)N2CCc3ncc(C(F)(F)F)cc3C2)(C(C)C)C1

>  <Growth Rate>
1

$$$$
>  <molSmiles>
O=C(O)c1ccc2cc(-c3ccc(O)c(C45CC6CC(CC(C6)C4)C5)c3)ccc2c1

>  <Growth Rate>
0

$$$$

Q: Using the record for `COc1cc2c(Nc3ccc(NC(=O)c4ccccc4)cc3)ncnc2cc1OCCCN1CCOCC1` , report its Growth Rate.
Result: 0

----------
# System: U2OS
# assayInfo: Multiplex assay against U2OS
# Format: toxicity, cell-based
# studyConditions: human, 24 h, 1 µM, compound concentration 1 uM, replicate 2
property: Population Mitotic Cells (%)
Give the number; % is assumed, so skip it.

Please review the entries below; each comes with its answer.
>  <molecule>
CNc1oc(-c2cccc3ccccc23)nc1C#N

>  <property>
Population Mitotic Cells (%)

>  <numericValue>
75

$$$$
>  <molecule>
CC(C)Oc1ccc(C(=O)N[C@H](CNC(=O)CN(C)C)Cc2ccc(-c3cn4cccc([C@H](C)O)c4n3)cc2)cc1Cl [GSK-923295A]

>  <property>
Population Mitotic Cells (%)

>  <numericValue>
70

$$$$

Consider the record given below.
Q: Which Population Mitotic Cells (%) is reported for this molecule? CCC(=O)O[C@]1(C(=O)SCF)[C@H](C)C[C@H]2[C@@H]3C[C@H](F)C4=CC(=O)C=C[C@]4(C)[C@@]3(F)[C@@H](O)C[C@@]21C [FLUTICASONE PROPIONATE]
Result: 83
